TBK1 (Homo sapiens, UniProt Q9UHD2) IC50, compiled from various sources.
Sequence (Q9UHD2 whole entry): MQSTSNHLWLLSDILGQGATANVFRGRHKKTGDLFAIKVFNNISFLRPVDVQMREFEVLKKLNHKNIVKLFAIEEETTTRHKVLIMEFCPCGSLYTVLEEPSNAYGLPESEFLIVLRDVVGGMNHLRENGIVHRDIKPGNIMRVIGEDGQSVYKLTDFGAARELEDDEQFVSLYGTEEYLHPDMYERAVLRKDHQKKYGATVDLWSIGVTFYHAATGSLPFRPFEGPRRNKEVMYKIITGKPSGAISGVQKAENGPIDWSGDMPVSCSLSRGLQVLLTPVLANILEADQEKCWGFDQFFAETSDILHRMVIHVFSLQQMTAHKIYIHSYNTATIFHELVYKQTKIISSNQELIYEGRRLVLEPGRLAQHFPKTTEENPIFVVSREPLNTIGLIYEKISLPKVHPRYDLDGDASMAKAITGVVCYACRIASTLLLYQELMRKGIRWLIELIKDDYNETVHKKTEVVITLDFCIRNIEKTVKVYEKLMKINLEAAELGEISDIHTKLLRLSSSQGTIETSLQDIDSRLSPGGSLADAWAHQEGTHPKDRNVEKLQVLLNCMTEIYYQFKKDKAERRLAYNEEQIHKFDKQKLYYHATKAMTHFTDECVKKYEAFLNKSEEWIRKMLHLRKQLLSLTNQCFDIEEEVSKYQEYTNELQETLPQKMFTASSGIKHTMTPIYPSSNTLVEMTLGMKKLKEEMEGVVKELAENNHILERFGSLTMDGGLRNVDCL
property_measured: IC50 (nM)

// solved cases for IC50 follow
Which IC50 is listed for CC1C=C(c2c[nH]c3ncc(-c4ccc(CN5CCN(C(=O)OC(C)(C)C)CC5)s4)cc23)CCN1C(=O)NC1CC1 (stereo not shown) ?
18

Need IC50 of "COc1ccc(-c2cnc3[nH]cc(C4=CCN(C(=O)NC5CCCC5)CC4)c3c2)cc1F" , thanks.
330

Entry "N#Cc1cc(-c2ccnc(Nc3ccc(N4CCOCC4)nn3)c2)ccc1OC1CCOCC1" : reported IC50 = ?
88

Which IC50 reading was recorded for the compound "CC(C)(C)OC(=O)N1CCN(c2ccc(C(=O)Nc3sc(-c4ccncc4)nc3C(N)=O)cn2)CC1" ?
1200

Quick one: IC50 for "CN1CCC(c2ccnc(Nc3cc(-c4ccc(OC5CCOCC5)c(C#N)c4)ccn3)c2)CC1" ?
5

A = CC(C)(C)OC(=O)N1CC=C(c2c[nH]c3ncc(-c4ccc(CN5CCOCC5)s4)nc23)CC1
B = N#Cc1cc(-c2ccnc(Nc3ccc(CN4CCOCC4)cn3)c2)ccc1OC1CCOCC1
Of the pair A and B , name the member with the lesser recorded IC50. Please indicate the selected item by its label.
B
(B: 24 nM, A: 470 nM)

P = COc1ccccc1-c1cnc2[nH]cc(C3=CCN(C(=O)OC(C)(C)C)CC3)c2c1
Q = CN1CCN(Cc2ccc(-c3cnc4[nH]cc(C5=CCN(C(=O)NC6CC6)CC5)c4c3)cc2)CC1
Kindly identify the item with the lower IC50 figure among these two: P and Q Returns: label corresponding to the selected item.
Q
(Q: 14 nM, P: 1800 nM)

a = Cc1coc(Nc2nccc(-c3ccc(OC4CCOCC4)c(C#N)c3)n2)n1
b = N#Cc1cc(-c2ccnc(Nc3ccc(N4CCOCC4)cn3)c2)ccc1OCC1CC1
// compare: a vs b , metric IC50, want the smaller Answer with the label corresponding to your selection.
b

1 = Cc1cc(-c2nc(C(N)=O)c(NC(=O)c3ccc(CN4CCN(C)CC4)cc3)s2)ccn1
2 = CCC1CC(c2c[nH]c3ncc(-c4ccc(CN5CCOCC5)s4)cc23)=CCN1C(=O)NC(C)C (stereo not shown)
3 = CC(=O)N1CCC(COc2ccc(-c3ccnc(Nc4cnn(C5CCNCC5)c4)c3)cc2C#N)CC1
List from greatest to least IC50. Show the ranking through the labels, in the order asked for.
3, 1, 2
(3: 6600 nM, 1: 410 nM, 2: 31 nM)
